growth inhibition values by entry
# Protocol description: NCI Yeast Anticancer Drug Screen. Data for the sgs1 mgt1 strain (AID 161);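 note: 0% = growth of cultures given vehicle only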
# Study conditions: S. cerevisiae sgs1 mgt1 strain, at 5.0 µM (retest, dose inferred, filed as 0.5), hits give high values
# Experimental: Growth inhibition of yeast strains with defined genetic alterations is measured as a screen for potential anti-cancer activity. Selected strains with alterations in DNA damage repair or cell cycle control were exposed to compounds and growth inhibition was measured relative to vehicle treated controls. The strain used in this assay is sgs1 mgt1
Compounds without any hit were thinned out: in the full panel of roughly 79,000, 15% have a hit.
The reply should contain only the number, in %.

- Molecule: "Cc1ccc(O)cc1CCCCO"
  Output unit: "%"
  growth inhibition: -1
- Molecule: "NC(=O)c1ccccc1C(=O)O"
  Output unit: "%"
  growth inhibition: 0

Prompt: Output measured growth inhibition for this item: "CC(=O)c1c(-c2ccc(Cl)cc2)c(-c2ccc(Cl)cc2)nn(CCO)c1=O"
Completion: 2

Prompt: Consider the molecule NC(=O)c1ncn(C2OC(CO)C(O)C2O)c1O (stereo not drawn) and give its recorded growth inhibition.
Completion: -3

Prompt: For the molecule "Cc1[nH]ccc2c(C)c3nc4ccccc4c3cc12" , report growth inhibition.
Completion: 14

Prompt: Return value of growth inhibition for input O=C(/C=C/c1ccccc1)CCN1CCC2CCC(C2)C1 (stereo not drawn) , no commentary.
Completion: 15

----------
Each entry below carries its recorded growth inhibition.
# Protocol description: NCI Yeast Anticancer Drug Screen. Data for the sgs1 mgt1 strain (AID 161);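 note: 0% = growth of cultures given vehicle only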
# Study conditions: S. cerevisiae sgs1 mgt1 strain, at 5.0 µM (retest, dose inferred, filed as 0.5), hits give high values
About 79,000 compounds went through this panel and 15% of them were active in at least one assay; those are over-represented in the sample as a whole.
# output: bare number, implied unit %

- Smiles representation: "O=C(Cc1nc2ccc(Cl)cc2nc1CC(=O)c1ccccc1)c1ccccc1"
  growth inhibition / %: -2
- Smiles representation: "O=Cc1ccc2ccc3ccccc3c2c1"
  growth inhibition / %: 6
- Smiles representation: "CCOc1ccc2nc(NC(=O)c3c/c(=N\\NC(=O)C[N+](C)(C)C)c4ccc(O)cc4o3)sc2c1"
  growth inhibition / %: 33

Prompt: Supply reported growth inhibition belonging to this compound: "Cc1ccc(C)c(S(=O)(=O)Nc2c([N+](=O)[O-])cc([N+](=O)[O-])c3ccccc23)c1"
Completion: 47

Prompt: Specify measured growth inhibition for "CO/N=C/c1cc(NC(=S)c2ccoc2C)ccc1Cl" .
Completion: 20

----------
# Protocol description: NCI Yeast Anticancer Drug Screen. Data for the mec2-1 strain (AID 157)
# Study conditions: S. cerevisiae mec2-1 strain, at 5.0 µM (retest, dose inferred, filed as 0.5), hits give high values
The panel holds about 79,000 compounds, 15% with a hit somewhere; the sample as a whole holds those more often.
Property label: growth inhibition (%)
Return type: number; implicit unit %.

Answered cases to consult:
- Molecule: "CCCCCCCCCCCCCCCCCCOP(=O)([O-])OCC[N+](C)(C)C"
  growth inhibition [%]: -2
- Molecule: "C/C=C/C(=O)NCC(C(C)C)/[N+]([O-])=N/O (stereo not drawn)"
  growth inhibition [%]: 95
- Molecule: "O=[N+]([O-])c1ccc(S(=O)(=O)C/C=C/CCl)c([N+](=O)[O-])c1"
  growth inhibition [%]: 34
- Molecule: "Cc1nc(Nc2ccc(Cl)cc2)sc1C(=O)NNc1ccc([N+](=O)[O-])cc1[N+](=O)[O-]"
  growth inhibition [%]: 9
- Molecule: "COc1ccc(NC(=O)Nc2ccc(Cl)cc2)nn1"
  growth inhibition [%]: -4

Prompt: Input "CCN(CC)c1ccc(N=C2C=C(C(=O)Nc3cccc(Cl)c3)C(=O)c3ccccc32)c(C)c1" , output reported growth inhibition.
Completion: 8

Prompt: Indicate its recorded growth inhibition; the molecule in question is COC(=O)[C@@]12OC[C@]34[C@H]([C@@H](O)[C@@H]1O)[C@@]1(C)CC(=O)C(O)=C(C)[C@@H]1C[C@H]3OC(=O)[C@H](OC(=O)C(Cc1ccccc1)NC(=O)OC(C)(C)C)[C@@H]24 (stereo partly drawn)
Completion: 26

Prompt: Provide growth inhibition value for the following molecule: "CCC[CH2][Sn]([S][Sn]([CH2]CCC)([c]1ccccc1)[c]1ccccc1)([c]1ccccc1)[c]1ccccc1"
Completion: 93

----------
# Protocol description: NCI Yeast Anticancer Drug Screen. Data for the bub3 strain (AID 167)
# Study conditions: S. cerevisiae bub3 mutant strain, at 50.0 µM, hits give high values
The panel holds about 79,000 compounds, 15% with a hit somewhere; the sample as a whole holds those more often.
Property label: growth inhibition (%)
Value expressed in %; do not type the unit.

- Compound: "CCOc1ccccc1N=Nc1ccc2oc(=O)c(C(=O)Nc3cccc(C)c3)cc2c1"
  Property label: "growth inhibition"
  Recorded number: 9.9
- Compound: "Cc1c[nH]c2c(O)cc3c(c12)[C@H](CCl)CN3C(=O)c1cc2cc(NC(=O)Nc3ccc4[nH]c(C(=O)N5C[C@@H](CCl)c6c5cc(O)c5[nH]cc(C)c65)cc4c3)ccc2[nH]1"
  Property label: "growth inhibition"
  Recorded number: -0.05

Prompt: Tell me measured growth inhibition for "CC(=O)Nc1[c-]cccc1.CC(=O)Nc1[c-]cccc1.CC(=O)O.CC(=O)O.[Pd].[Pd]" please.
Completion: 58.7

Prompt: Please look at this compound and report its growth inhibition: "Oc1cc(-[n+]2ccccc2)c(O)c2ccccc12"
Completion: 6.3

Prompt: Return the recorded growth inhibition value; entry: "COc1ccc(-c2[nH]c(-c3ccc(OC)cc3)c(-c3ccccn3)c2-c2ccccn2)cc1"
Completion: 83.5

Prompt: Note growth inhibition for the compound shown: C1=CC2C(c3cccc4ccccc34)O[C@H]2O1 (stereo partly drawn)
Completion: 98.4

Prompt: Specify reported growth inhibition for the compound shown: "CC(C)[C@@H]1CC[C@@H](C)C[C@H]1OC(=O)NN"
Completion: 80.5

----------
# Protocol description: NCI Yeast Anticancer Drug Screen. Data for the cln2 rad14 strain (AID 165);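 note: 0% = growth equal to vehicle treated cultures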
# Study conditions: S. cerevisiae cln2 rad14 strain, at 50.0 µM, hits give high values
Compounds without any hit were thinned out: in the full panel of roughly 79,000, 15% have a hit. Active and inactive are the calls of the source. Rule as the data show it: active = growth inhibition above about 70%; inactive = the rest.
Parameter growth inhibition: see the listing below.

Guide cases for growth inhibition, answers given:
- Compound: "NCC(CS)C(=O)NC(CS)C(=O)NC(CS)C(=O)NCCNc1ccc(NCCNC(=O)C(CS)NC(=O)C(CS)NC(=O)C(CN)CS)c2c1C(=O)c1c(O)ccc(O)c1C2=O (stereo not given)"
  Property label: "growth inhibition"
  Result: "65.7% (inactive)"
- Compound: "CC(=O)OCCC1=CCC2CC1C2(C)C (stereo not given)"
  Property label: "growth inhibition"
  Result: "23.4% (inactive)"

Prompt: Please look at this compound and report its growth inhibition: "CCCCC(/C=N\NC(=O)c1ccc[n+](C)c1)=C/c1ccccc1"
Completion: 18.5% (inactive)

Prompt: Answer with the recorded growth inhibition for the compound listed here: "CCC(=O)C(CC)(c1ccc(OC(C)=O)cc1)c1ccc(OC(C)=O)cc1"
Completion: 14.7% (inactive)

Prompt: Identify measured growth inhibition associated with O=NN(CCCl)C(=O)NCCSSCCNC(=O)N(CCCl)N=O (tested in a mixture with another compound)
Completion: 21.6% (inactive)

----------
# Protocol description: NCI Yeast Anticancer Drug Screen. Data for the sgs1 mgt1 strain (AID 161);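 note: 0% = growth of cultures given vehicle only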
# Study conditions: S. cerevisiae sgs1 mgt1 strain, at 50.0 µM
This is part of a sample that, as a whole, favours compounds with a hit. Of some 79,000 tested, about 15% had one in any assay. The source made the active and inactive calls. No stated cut-off is given here; in the data, active means growth inhibition above about 70%; inactive means the rest.
One label from this list, please: label 1 = active, label 0 = inactive

Solved cases below.
- Molecule: "CCc1[nH]c2ccccc2c1C(c1c(CC)[nH]c2ccccc12)C1CCCCC1=O (stereo unspecified)"
  Cat: "label 1"
- Molecule: "CS(C)=O.[Cl-].[Cl-].[NH-]CC(O)CN(Cc1ccccc1)CC(O)CN.[Pt] (stereo unspecified)"
  Cat: "label 0"
- Molecule: "C[n+]1c(-c2cccc(OCCCCCCCCCCOc3cccc(-c4c5cc(N)ccc5c5ccc(N)cc5[n+]4C)c3)c2)c2cc(N)ccc2c2ccc(N)cc21"
  Cat: "label 1"
- Molecule: "C=C(CN(C)C)C(=O)c1ccc(OC2OC(COC(C)=O)C(OC(C)=O)C(OC(C)=O)C2OC(C)=O)cc1 (stereo unspecified)"
  Cat: "label 0"
- Molecule: "CCCCCN=Cc1c(O)c(O)c(C(C)C)c2cc(C)c(-c3c(C)cc4c(C(C)C)c(O)c(O)c(C=NCCCCC)c4c3O)c(O)c12"
  Cat: "label 1"
- Molecule: "C=C1CC(Cn2cc(C)c(=O)[nH]c2=O)(c2ccc(Cl)cc2)OC1=O (stereo unspecified)"
  Cat: "label 1"
- Molecule: "COC1/C=C/OC2(C)Oc3c(C)c(O)c4c(c3C2=O)C(=O)c2cnc(nc2C4=O)/C(C)=C\\C=C\\C(C)C(O)C(C)C(O)C(C)C(OC(C)=O)C1C (stereo unspecified)"
  Cat: "label 0"
- Molecule: "Cc1ccsc1/C=N/Nc1cc(C)c2cccc(C)c2n1"
  Cat: "label 0"

Continue with the molecule presented below.
Prompt: Could you please tell me the result logged for "O=C(C(=Cn1c(=S)[nH]c2ccc([N+](=O)[O-])cc21)C(=O)c1ccccc1)c1ccccc1" in this assay?
Completion: label 1
